molecular target: PI3K (p110β/p85α) (Homo sapiens); test: PI3Kβ assay (ADP-Glo Kinase Assay); format: biochemical; settings: read-out: Enzyme activity IC50 PI3Kβ
pIC50: −log10 of the molar value.
property: pIC50

# count of solved cases: 3
Cc1nc(C(C)c2cc(Cl)c(F)c(C(=O)NCC3(O)CC3)c2OC(C)C)n2ccnc(N)c12 (stereo not shown) :: 4.66
Cc1nc([C@@H](C)c2cc(Cl)c(F)c(C(=O)N[C@H]3CCCC[C@H]3O)c2OC(C)C)n2ccnc(N)c12 :: 4.59
Cc1nc([C@@H](C)c2cc(Cl)c(F)c(C(=O)NCC3(O)COC3)c2OC(C)C)n2ccnc(N)c12 :: 4.96

(a) CNC(=O)c1c(F)c(Cl)cc([C@H](C)c2nc(C)c3c(N)nccn23)c1OC(C)C
(b) COc1ccc([C@@H](C)NC(=O)c2c(F)c(Cl)cc([C@H](C)c3nc(C)c4c(N)nccn34)c2OC(C)C)cc1
(c) COC[C@@H]1CCCN1C(=O)c1c(F)c(Cl)cc([C@H](C)c2nc(C)c3c(N)nccn23)c1OC(C)C
Order the items by recorded pIC50; the first position goes to the largest value. Field: ranking. Enter the labels in the order requested.
a, b, c
(a: 5.52, b: 4.89, c: 4.14)

====

target: PI3K (p110γ) (Homo sapiens, UniProt P48736); test: PI3Kγ assay (ADP-Glo Kinase Assay); format: biochemical; settings: recombinant enzyme; IC50 (nM) or max inhibition (%) at 0.5 μM
Sequence (P48736 whole entry): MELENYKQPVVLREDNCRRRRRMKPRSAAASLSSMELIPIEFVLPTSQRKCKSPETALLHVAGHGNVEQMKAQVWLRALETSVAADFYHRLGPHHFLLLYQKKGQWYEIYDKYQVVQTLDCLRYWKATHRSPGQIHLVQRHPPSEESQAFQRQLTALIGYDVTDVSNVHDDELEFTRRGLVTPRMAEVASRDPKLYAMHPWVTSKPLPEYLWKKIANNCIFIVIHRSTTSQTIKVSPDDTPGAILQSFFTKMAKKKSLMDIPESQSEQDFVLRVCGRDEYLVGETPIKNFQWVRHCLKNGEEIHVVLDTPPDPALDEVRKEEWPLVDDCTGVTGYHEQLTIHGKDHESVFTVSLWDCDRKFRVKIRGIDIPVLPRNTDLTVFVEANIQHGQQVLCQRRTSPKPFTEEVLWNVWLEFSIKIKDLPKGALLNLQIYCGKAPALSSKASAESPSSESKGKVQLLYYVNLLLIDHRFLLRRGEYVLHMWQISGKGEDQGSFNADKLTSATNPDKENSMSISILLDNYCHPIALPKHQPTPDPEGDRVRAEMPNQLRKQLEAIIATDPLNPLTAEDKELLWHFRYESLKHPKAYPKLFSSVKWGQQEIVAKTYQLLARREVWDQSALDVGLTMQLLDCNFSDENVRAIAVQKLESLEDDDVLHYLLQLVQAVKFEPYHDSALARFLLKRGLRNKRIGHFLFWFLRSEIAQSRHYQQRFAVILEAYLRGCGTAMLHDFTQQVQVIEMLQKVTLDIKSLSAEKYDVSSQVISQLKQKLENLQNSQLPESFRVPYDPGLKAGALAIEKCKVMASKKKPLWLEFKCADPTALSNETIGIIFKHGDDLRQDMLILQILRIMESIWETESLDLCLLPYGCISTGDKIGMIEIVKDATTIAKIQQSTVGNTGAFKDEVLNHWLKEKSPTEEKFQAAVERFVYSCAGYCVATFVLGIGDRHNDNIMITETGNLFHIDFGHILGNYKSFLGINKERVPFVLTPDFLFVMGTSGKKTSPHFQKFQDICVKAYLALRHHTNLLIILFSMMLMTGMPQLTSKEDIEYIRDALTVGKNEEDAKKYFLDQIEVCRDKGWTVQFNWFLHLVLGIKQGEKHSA
property: IC50 (nM)

# count of solved cases: 4
CNC(=O)c1c(F)c(Cl)cc([C@H](C)c2nc(C)c3c(N)nccn23)c1OC(C)C :: 3900
Cc1nc(C(C)c2cc(Cl)c(F)c(C(=O)NC3(CO)CC3)c2OC(C)C)n2ccnc(N)c12 (stereo not shown) :: 10000
Cc1nc(C(C)c2cc(Cl)c(F)c(C(=O)N3CCOCC3)c2OC(C)C)n2ccnc(N)c12 (single isomer, unassigned) [Compound 4A] :: 2000
Cc1nc([C@@H](C)c2cc(Cl)c(F)c(C(=O)N[C@@H]3CCC[C@H]3O)c2OC(C)C)n2ccnc(N)c12 :: 2800

(I) Cc1nc([C@@H](C)c2cc(Cl)c(F)c(C(=O)N3C[C@H](C)O[C@@H](C)C3)c2OC(C)C)n2ccnc(N)c12
(II) Cc1nc([C@@H](C)c2cc(Cl)c(F)c(C(=O)NCc3ccccn3)c2OC(C)C)n2ccnc(N)c12
(III) Cc1nc([C@@H](C)c2cc(Cl)c(F)c(C(=O)N[C@H]3CC[C@@H](O)CC3)c2OC(C)C)n2ccnc(N)c12
Write the entries in order, lowest recorded IC50 first. Field: ranking. Enter the labels in the order requested.
II, I, III
(II: 2200 nM, I: 3400 nM, III: 9000 nM)

====

biological target: PI3K (p110β/p85α) (Homo sapiens, UniProt P42338); experiment: PI3Kβ assay (ADP-Glo Kinase Assay); type: biochemical; details: read-out: Enzyme activity IC50 PI3Kβ
Sequence (P42338 whole entry): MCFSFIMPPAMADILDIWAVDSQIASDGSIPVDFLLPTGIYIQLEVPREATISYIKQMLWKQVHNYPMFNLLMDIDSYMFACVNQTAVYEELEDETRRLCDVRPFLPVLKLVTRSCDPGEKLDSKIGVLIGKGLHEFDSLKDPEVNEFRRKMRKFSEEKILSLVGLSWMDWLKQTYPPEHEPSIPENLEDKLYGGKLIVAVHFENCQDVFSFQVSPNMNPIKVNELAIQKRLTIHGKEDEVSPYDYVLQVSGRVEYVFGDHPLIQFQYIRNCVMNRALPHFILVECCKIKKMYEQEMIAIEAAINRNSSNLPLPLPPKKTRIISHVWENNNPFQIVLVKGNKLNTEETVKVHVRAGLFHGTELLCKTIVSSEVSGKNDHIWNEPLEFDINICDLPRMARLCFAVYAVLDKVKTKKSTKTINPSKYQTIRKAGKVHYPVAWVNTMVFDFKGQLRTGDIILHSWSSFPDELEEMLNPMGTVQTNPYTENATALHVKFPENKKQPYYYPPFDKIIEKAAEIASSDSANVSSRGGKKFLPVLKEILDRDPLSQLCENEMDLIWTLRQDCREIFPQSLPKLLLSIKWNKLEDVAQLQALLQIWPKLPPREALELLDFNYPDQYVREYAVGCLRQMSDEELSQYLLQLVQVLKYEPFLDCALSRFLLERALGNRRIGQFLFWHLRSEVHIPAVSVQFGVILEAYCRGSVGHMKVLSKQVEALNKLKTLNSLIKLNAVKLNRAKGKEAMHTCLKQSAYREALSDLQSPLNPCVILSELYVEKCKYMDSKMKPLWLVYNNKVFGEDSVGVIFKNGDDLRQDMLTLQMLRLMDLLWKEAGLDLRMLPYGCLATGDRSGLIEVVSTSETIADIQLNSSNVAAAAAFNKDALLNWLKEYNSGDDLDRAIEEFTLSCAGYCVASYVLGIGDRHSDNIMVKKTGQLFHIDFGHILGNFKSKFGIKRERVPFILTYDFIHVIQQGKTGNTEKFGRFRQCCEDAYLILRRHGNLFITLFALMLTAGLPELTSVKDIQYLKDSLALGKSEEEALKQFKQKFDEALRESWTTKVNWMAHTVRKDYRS
Sequence (P27986 whole entry partner): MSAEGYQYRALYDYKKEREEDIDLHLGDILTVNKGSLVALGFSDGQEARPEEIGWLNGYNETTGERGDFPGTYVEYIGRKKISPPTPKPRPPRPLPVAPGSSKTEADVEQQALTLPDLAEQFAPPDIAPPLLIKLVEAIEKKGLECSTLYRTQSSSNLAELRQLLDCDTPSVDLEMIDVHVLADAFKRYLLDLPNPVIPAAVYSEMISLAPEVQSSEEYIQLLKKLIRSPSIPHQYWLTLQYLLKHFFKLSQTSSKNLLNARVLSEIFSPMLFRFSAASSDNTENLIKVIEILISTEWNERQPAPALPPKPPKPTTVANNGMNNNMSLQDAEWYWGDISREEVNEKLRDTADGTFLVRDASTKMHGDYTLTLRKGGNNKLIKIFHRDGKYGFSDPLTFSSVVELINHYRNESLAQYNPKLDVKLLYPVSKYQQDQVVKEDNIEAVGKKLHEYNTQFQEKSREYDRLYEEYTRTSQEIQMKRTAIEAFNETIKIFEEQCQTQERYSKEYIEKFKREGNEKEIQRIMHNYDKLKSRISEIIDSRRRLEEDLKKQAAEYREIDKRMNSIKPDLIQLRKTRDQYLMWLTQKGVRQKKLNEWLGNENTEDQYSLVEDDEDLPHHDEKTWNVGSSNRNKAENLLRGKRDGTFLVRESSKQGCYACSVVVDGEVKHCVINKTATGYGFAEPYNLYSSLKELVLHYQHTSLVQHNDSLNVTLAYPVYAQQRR
pIC50: −log10 of the molar value.
property: pIC50

# count of solved cases: 5
Cc1nc(C(C)c2cc(Cl)c(F)c(C(=O)NC[C@@H](C)O)c2OC(C)C)n2ccnc(N)c12 (some centres unmarked) :: 4.74
Cc1nc([C@@H](C)c2cc(Cl)c(F)c(C(=O)N[C@@H](C)c3ccccc3)c2OC(C)C)n2ccnc(N)c12 :: 4.55
Cc1nc(C(C)c2cc(Cl)c(F)c(C(=O)N3CCOCC3)c2OC(C)C)n2ccnc(N)c12 (single isomer, unassigned) [Compound 4A] :: 4.96
Cc1nc([C@@H](C)c2cc(Cl)c(F)c(C(=O)N[C@@H]3CC[C@@H](O)C3)c2OC(C)C)n2ccnc(N)c12 :: 4.96
Cc1nc([C@@H](C)c2cc(Cl)c(F)c(C(=O)NCCC3CCOCC3)c2OC(C)C)n2ccnc(N)c12 :: 4.77

(P) Cc1nc([C@@H](C)c2cc(Cl)c(F)c(C(=O)N[C@]3(C)C[C@@H](O)C3)c2OC(C)C)n2ccnc(N)c12
(Q) Cc1nc([C@@H](C)c2cc(Cl)c(F)c(C(=O)NC3(CN4CCN(CC5CC5)CC4)CC3)c2OC(C)C)n2ccnc(N)c12
// returns P or Q , whichever has the lower pIC50 In your reply, give the label of the chosen option.
Q
